Values compiled from patent US20230257396A1.

Target: kinases (Homo sapiens, UniProt P00533, G719S)
Construct: purchased Eurofins/DiscoveRx; host or cells: E. coli BL21-derived host (T7 phage display) for most kinases; HEK-293 for the rest
Experiment: KINOMEscan kinase binding assay (Eurofins/DiscoveRx), % Ctrl
Details: 1 μM; target EGFR(G719S)
Kind request: treat 90 % Ctrl as inclusive, so % Ctrl, EGFR(G719S) at 90 % Ctrl or higher is Met, anything lower is Not met.

                               smiles_entry      cat
0  Cc1cc2c([nH]1)/C=C1\C(=O)Nc3ccc(cc31)-c1c(noc1C(C)C)COCCN(C)C2=O  Not met
1  Cc1cc2c([nH]1)/C=C1\C(=O)Nc3ccc(cc31)-c1cnn(C)c1OCCCN(C)C2=O      Met
2  Cc1cc2c([nH]1)/C=C1\C(=O)Nc3cnc(cc31)-c1cnn(C)c1CN(C)CCN(C)C2=O  Not met
3  CN1CCOc2cc3c(cc2Cl)NC(=O)/C3=C\c2[nH]ccc2C(=O)N(C)CC1  Not met
